# system_tested: T1, dNELF-E (Drosophila, UniProt P92204 1-280)
# T1 sequence: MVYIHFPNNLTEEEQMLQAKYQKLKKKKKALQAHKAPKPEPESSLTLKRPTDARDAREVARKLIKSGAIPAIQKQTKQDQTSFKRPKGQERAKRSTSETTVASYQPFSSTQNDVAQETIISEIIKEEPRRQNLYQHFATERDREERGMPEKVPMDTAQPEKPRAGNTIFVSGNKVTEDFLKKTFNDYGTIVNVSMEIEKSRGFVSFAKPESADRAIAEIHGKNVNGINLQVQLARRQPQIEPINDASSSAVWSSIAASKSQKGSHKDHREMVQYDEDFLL
# assay_overview: F-EMSA; 10 mM HEPES-NaOH pH 7.5, 100 mM NaCl, 25 mM KCl, 1 mM MgCl2, 0.02% Tween-20, 0.01% IGEPAL CA-630, 10 µg/ml yeast tRNA; 2 nM RNA, 0-2000 nM protein, 1-2 h, binding temperature not stated; gel 5% acrylamide 0.5X TBE at 4 °C
# stated_conditions: protein: recombinant; tags: N-terminal His6 (pHIS-parallel1); label: 3' fluorescein (5-thiosemicarbazide); hairpin with UCU bulge
reported_endpoint: Kd (nM)

binder="HIV-1 TAR+A (structured_RNA) RNA: GGUCUCUCUGGUUAGACCAGAUCUGAGCCUGAGGAGCUCUCUGGCUAACUAGGGAACC" reported_endpoint=Kd observed_value=59
binder="HIV-1 TAR (structured_RNA) RNA: GGUCUCUCUGGUUAGACCAGAUCUGAGCCUGGGAGCUCUCUGGCUAACUAGGGAACC" reported_endpoint=Kd observed_value=350

Source of measurements: paper PMC3894171
